# Assayed System: Human P2X3 receptor (Homo sapiens, UniProt P56373)
# Sequence (P56373 whole entry): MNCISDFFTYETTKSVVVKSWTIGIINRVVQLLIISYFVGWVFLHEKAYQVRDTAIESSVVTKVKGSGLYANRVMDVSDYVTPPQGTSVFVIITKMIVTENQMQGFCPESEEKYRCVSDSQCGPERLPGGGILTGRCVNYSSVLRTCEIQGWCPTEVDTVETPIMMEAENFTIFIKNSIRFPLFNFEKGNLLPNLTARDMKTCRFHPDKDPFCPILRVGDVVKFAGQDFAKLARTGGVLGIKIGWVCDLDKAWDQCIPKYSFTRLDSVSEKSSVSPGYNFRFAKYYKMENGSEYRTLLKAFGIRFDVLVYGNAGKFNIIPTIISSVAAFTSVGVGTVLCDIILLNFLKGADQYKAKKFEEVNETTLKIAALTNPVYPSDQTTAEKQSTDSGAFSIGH
# Assay Details: Inhibitory activity on human P2X3 receptor (FLIPR calcium 6 assay, HEK293-P2X3 cells, agonist α,β-MeATP)
# Experimental Conditions: HEK293-P2X3 stably expressing cell line, FLIPR Tetra
Readout: IC50 (nM)

{"Smiles String": "CC(C)c1cnc2c(c1Oc1cnc(N)nc1N)CCN2", "Assayed System": "Human P2X3 receptor (Homo sapiens, UniProt P56373)", "IC50 (nM)": 60.5}
{"Smiles String": "CC(C)c1cnc2[nH]ccc2c1Oc1cnc(N)nc1N", "Assayed System": "Human P2X3 receptor (Homo sapiens, UniProt P56373)", "IC50 (nM)": 86}
